biological target: human Farnesoid X receptor ligand-binding domain/Gal4 DNA binding domain chimera (Homo sapiens (Human)); test: Cell-based assay of FXR activation (FXR-UAS-bla HEK 293T beta-lactamase reporter); conditions: HEK-293T; extent of activation relative to GW4064; cellular FXR beta-lactamase reporter assay; read-out: % Efficacy
Sequence (Q96RI1 262-486, change not shown): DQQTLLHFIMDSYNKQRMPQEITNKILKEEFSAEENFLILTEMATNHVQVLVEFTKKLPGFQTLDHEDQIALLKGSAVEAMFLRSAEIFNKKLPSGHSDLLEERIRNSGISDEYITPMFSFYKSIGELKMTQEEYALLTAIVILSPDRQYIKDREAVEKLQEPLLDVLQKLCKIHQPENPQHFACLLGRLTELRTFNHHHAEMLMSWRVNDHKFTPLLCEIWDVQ
Sequence (P04386 1-147 partner): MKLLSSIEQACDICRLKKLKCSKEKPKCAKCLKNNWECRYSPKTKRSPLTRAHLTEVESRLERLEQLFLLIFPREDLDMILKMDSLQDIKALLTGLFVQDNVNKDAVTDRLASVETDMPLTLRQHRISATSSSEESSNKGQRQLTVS
Field: Emax. Provide a value for each of the compounds that follow.
Provide only the numeric value, understood in %.

Suppose we examine the compound `O=C(O)c1cc(OC(F)(F)F)c2nc(N3C[C@@H]4C[C@H]3C[C@H]4OCc3c(-c4c(Cl)cccc4Cl)noc3C3(F)CC3)sc2c1` ; what Emax value has been reported?
102

// repeat for `O=C(O)CCc1ccc(N2C(=O)[C@@H]3C[C@H]2C[C@H]3OCc2c(-c3c(Cl)cccc3Cl)noc2C2CC2)cc1` and report
98

// repeat for `O=C(O)c1ccc(N2C[C@@H]3C[C@H]2C[C@H]3OC(=O)c2c(-c3c(Cl)cccc3Cl)noc2C2CC2)cc1` and report
110

// repeat for `Cc1cc(N2C[C@@H]3C[C@H]2C[C@H]3OCc2c(-c3c(Cl)cccc3Cl)noc2C2CC2)ccc1C(=O)O` and report
100

// repeat for O=C(NS(=O)(=O)CCC(O)CO)c1ccc(N2C[C@@H]3C[C@H]2C[C@H]3OCc2c(-c3c(Cl)cccc3Cl)noc2C2CC2)cc1 (stereo partly shown) and report
104

// repeat for `O=C(O)c1ccc(N2C(=O)[C@@H]3C[C@H]2C[C@H]3OCc2c(-c3c(F)cccc3C3CC3)noc2C2CC2)cc1` and report
105

// repeat for `Cc1cccc(C)c1-c1noc(C2CC2)c1CO[C@@H]1C[C@@H]2C[C@H]1CN2c1ccc(C(=O)O)cc1F` and report
102

// repeat for `O=C(O)c1cc(O[C@H]2CCOC2)c2nc(N3C[C@@H]4C[C@H]3C[C@H]4OCc3c(-c4c(Cl)cccc4Cl)noc3C3CC3)sc2c1` and report
103

// repeat for `Cc1cccc(Cl)c1-c1noc(C2CC2)c1CO[C@@H]1C[C@@H]2C[C@H]1C(=O)N2c1ccc(C(=O)O)cc1` and report
104

// repeat for `CC(C)CCS(=O)(=O)NC(=O)c1ccc(N2C[C@@H]3C[C@H]2C[C@H]3OCc2c(-c3c(Cl)cccc3Cl)noc2C2CC2)c(F)c1` and report
113

// repeat for `O=C(O)c1ccc(N2C[C@@H]3C[C@H]2C[C@H]3OCc2c(C3CCC4(CC3)CC4)noc2C2CC2)cc1` and report
106

// repeat for `O=C(O)C1(c2ccc(N3C[C@@H]4C[C@H]3C[C@H]4OCc3c(-c4c(Cl)cccc4Cl)noc3C3CC3)cc2)CCC1` and report
96

// repeat for `O=c1[nH]c2cc(N3C[C@@H]4C[C@H]3C[C@H]4OCc3c(-c4c(Cl)cccc4Cl)noc3C3CC3)ccc2o1` and report
121
